molecular target: UniProt:P21453; test: S1P1R antagonist assay (fluorescent membrane potential dye, cAMP readout); details: HEK293 cells expressing human S1P1 receptors and CNG channel; 500 nM NECA; S1P1R agonist 10 nM; 90 minutes; read-out: EC50 or IC50 value
Sequence (P21453 whole entry): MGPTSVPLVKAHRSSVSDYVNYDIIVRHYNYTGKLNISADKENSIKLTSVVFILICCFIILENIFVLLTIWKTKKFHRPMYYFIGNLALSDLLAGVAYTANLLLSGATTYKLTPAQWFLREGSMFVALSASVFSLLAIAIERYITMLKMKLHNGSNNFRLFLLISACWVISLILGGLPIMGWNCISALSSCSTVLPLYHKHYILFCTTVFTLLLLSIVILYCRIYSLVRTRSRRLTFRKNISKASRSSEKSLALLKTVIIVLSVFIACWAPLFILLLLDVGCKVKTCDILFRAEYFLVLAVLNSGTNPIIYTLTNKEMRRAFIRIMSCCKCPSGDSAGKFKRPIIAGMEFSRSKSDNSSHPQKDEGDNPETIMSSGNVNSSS
quantity: IC50

# count of solved cases: 3
O=C(Cc1cnc[nH]1)N[C@@H](Cc1ccccc1)C(=O)Nc1ccc(Oc2ccc(Cl)cc2)cc1 : 300 to 1000 nM
COc1ccc(Br)c(C(=O)NC(COCc2ccccc2)C(=O)Nc2ccc(Oc3ccccc3)cc2)c1 (stereo not shown) : > 1000 nM
O=C(Nc1ccc(Oc2ccc(F)cc2)cc1)[C@@H]1C[C@@H](Cc2ccccc2)CN1C(=O)Cc1c(F)ccc(F)c1F : ≤ 300 nM

Now examine the next entry.
Requested field: IC50. Item: O=C(CCC(=O)N1C[C@H](Cc2ccccc2)C[C@H]1C(=O)Nc1ccc(Oc2ccc(F)cc2)cc1)c1cccs1
≤ 300 nM

// data source = patent US8791102B2
